- Target: Full-length (FL)-PRMT5-MEP50 enzyme complex (Homo sapiens)
- Construct: Full-length (FL)-PRMT5-MEP50 enzyme complex (recombinant proteins from baculovirus-transfected Sf21 cells: FL-PRMT5; MW=73837 kDa and FL-MEP50; MW=38614); made in house; host or cells: baculovirus-transfected Sf21 insect cells
- Sequence (O14744 whole entry): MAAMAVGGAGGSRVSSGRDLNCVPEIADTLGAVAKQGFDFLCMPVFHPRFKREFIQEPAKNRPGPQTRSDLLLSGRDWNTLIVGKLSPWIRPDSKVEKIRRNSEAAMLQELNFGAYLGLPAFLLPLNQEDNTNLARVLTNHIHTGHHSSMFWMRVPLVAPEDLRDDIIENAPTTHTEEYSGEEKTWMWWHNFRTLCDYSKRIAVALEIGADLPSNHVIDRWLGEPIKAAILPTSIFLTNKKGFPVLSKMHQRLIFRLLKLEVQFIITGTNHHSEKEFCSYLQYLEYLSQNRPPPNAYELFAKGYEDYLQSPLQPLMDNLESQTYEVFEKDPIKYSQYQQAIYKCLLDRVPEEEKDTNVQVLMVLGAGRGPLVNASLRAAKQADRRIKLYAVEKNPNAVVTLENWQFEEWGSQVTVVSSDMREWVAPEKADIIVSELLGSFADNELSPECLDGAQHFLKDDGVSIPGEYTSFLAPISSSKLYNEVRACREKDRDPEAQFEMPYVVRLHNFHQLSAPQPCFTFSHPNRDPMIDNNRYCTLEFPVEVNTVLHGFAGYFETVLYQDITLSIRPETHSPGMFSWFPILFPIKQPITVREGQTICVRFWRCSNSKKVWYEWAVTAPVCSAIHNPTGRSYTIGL
- Sequence (Q9BQA1 whole entry partner): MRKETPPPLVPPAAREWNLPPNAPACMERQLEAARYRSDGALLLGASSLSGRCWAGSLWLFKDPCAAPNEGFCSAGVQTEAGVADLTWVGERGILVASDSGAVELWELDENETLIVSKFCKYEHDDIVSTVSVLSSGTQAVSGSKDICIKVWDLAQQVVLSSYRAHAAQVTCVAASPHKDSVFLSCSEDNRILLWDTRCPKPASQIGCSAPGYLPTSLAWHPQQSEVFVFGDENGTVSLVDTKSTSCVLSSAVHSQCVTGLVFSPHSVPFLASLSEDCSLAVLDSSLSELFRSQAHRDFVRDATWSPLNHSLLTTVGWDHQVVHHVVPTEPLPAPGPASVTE
- Method summary: PRMT5-MEP50 Enzyme Methylation Assay
- Format: biochemical
- Condition context: one EC50: 4 parameters single site sigmoidal model; EC50 1: first value of 7 parameters biphasic model; 1.0 nM PRMT5-MEP50, 75 nM biotinylated peptide, 15 μM SAM; read-out: Enzyme Methylation Assay (EC50 or EC50 1)
pEC50: −log10 of the molar value.

{"Compound": "CC(C)(O)c1ncnc2c1ccn2[C@@H]1O[C@@H]2[C@@H](Oc3ccc4cc(Br)c(N)nc4c3)CC[C@]2(O)[C@H]1O", "pEC50": 7.88}
{"Compound": "Nc1ncnc2c1ccn2[C@@H]1O[C@@H]2[C@@H](Oc3ccc4cc5c(nc4c3)NCC5)CC[C@]2(O)[C@H]1O", "pEC50": 9.15}
{"Compound": "Cc1ncnc2c1ccn2[C@@H]1C[C@](C)(CCc2ccc3cc4c(nc3c2)NCC4)[C@@H](O)[C@H]1O", "pEC50": 9.05}
{"Compound": "Nc1nc2cc(CC[C@]3(CF)C[C@@H](n4ccc5c(N)ncnc54)[C@H](O)[C@@H]3O)ccc2cc1Br", "pEC50": 9.52}
{"Compound": "C[C@@]1(O)[C@@H](COc2ccc3ccc(N)nc3c2)C[C@@H](n2ccc3cncnc32)[C@@H]1O", "pEC50": 9.52}
{"Compound": "C#C[C@@]1(O)[C@@H](COc2ccc3cc(Br)c(N)nc3c2)O[C@@H](n2ccc3c(N)ncnc32)[C@@H]1O", "pEC50": 9.10}
{"Compound": "Cc1ncnc2c1ccn2[C@@H]1O[C@@H]2[C@H](Cc3ccc4cc(F)c(N)nc4c3)CC[C@]2(O)[C@H]1O", "pEC50": 9.00}
{"Compound": "Nc1nc2cc(C[C@H]3[C@H]4O[C@@H](n5ccc6c(N)ncnc65)[C@H](O)[C@@]4(O)CC3(F)F)ccc2cc1F", "pEC50": 9.52}
{"Compound": "Nc1nc2cc(C[C@H]3[C@H]4O[C@@H](n5cc(F)c6c(N)ncnc65)[C@H](O)[C@@]4(O)C[C@@H]3F)ccc2cc1F", "pEC50": 9.30}
{"Compound": "Cc1nc(N)c2c(F)cn([C@@H]3O[C@@H]4[C@H](Cc5ccc6cc(F)c(N)nc6c5)CC[C@]4(O)[C@H]3O)c2n1 [Example 44, 2,2,2-trifluoroacetate]", "pEC50": 9.40}
{"Compound": "Cc1cn([C@@H]2C[C@@H]3[C@H](Cc4ccc5cc(Br)c(N)nc5c4)CC[C@]3(O)[C@H]2O)c2ncnc(N)c12", "pEC50": 9.40}
{"Compound": "Cc1ncnc2c1ccn2[C@@H]1O[C@@H]2[C@H](Cc3ccc4ccc(N)nc4c3)CC[C@]2(O)[C@H]1O", "pEC50": 9.70}
{"Compound": "Nc1nc2cc(C[C@@H]3CC[C@@]4(O)[C@@H]3O[C@@H](n3cc(F)c5c(N)ncnc53)[C@@H]4O)ccc2cc1Br", "pEC50": 9.70}

Where do the numbers come from? From patent US20230062119A1.
